The measured values listed here are drawn from patent US8507411B2.

system: NCI/ADR-RES; test: cells; assay type: cell-based, human; conditions: NCI/ADR-RES cells; read-out: IC50, NCI/ADR-RES
observed_property: IC50 (nM)
Numbers only; they are read as nM.

* CON([C@H]1CC[C@@]2(C)[C@H](CC[C@@H]3[C@@H]2CC[C@]2(C)[C@@H](C4=CC(=O)OC4)CC[C@]32O)C1)[C@@H]1OC[C@@H](O)[C@H](O)[C@H]1O [24β, D-xyloside] | 540

Consider the additional molecule presented here.
Lookup: Entry CON([C@H]1CC[C@@]2(C)[C@H](CC[C@@H]3[C@@H]2CC[C@]2(C)[C@@H](C4=CC(=O)OC4)CC[C@]32O)C1)[C@@H]1O[C@H](CO)[C@@H](O)C[C@H]1O [10β, 3-deoxy-D-glucoside] : reported IC50 = ?
Found: 440
